- test: Quantitative highthroughput screen to assess conditional lethalithy of NOMO1 cells grown in RPMI1640 with untreated serum (RPMI+s) (AID 1963876); further: nearly all actives have a fitted effect of over 35% in size
- setup-conditions: NOMO1 AML cells in RPMI+serum, CellTiter-Glo viability, 48 h; series mostly up to 45.8 µM
- Procedure: Assay Provider: Jason Cantor Ph.D. Department of Biochemistry University of Wisconsin-Madison, Madison, WI, USA Chemical screening studies have identified drug sensitivities across hundreds of cancer cell lines but most putative therapeutics fail to translate. […] Sets of conditional anticancer compounds spanned phases of clinical development and included non-oncology drugs were assessed. […] 6; Detection; Luminescence, Viewlux PerkinElmer. […]
Inconclusive results are not listed. Active and inactive are the calls of the source. The call rests on the fitted dose curve; in most records, active means well fitted cell-killing curve with a large enough effect; inconclusive means small, poorly fitted or top-dose-only effect; inactive means flat fitted curve, though single readings scatter.
// classify into True for active, False for inactive

compound	group-label
CN(C)CCC=C1c2ccccc2C=Cc2ccccc21	True

Recorded call for `COC(=O)c1ccc2c(C(=Nc3ccc(N(C)C(=O)CN4CCN(C)CC4)cc3)c3ccccc3)c(O)[nH]c2c1` ?
False

Recorded call for `CC(C)(C)COc1ccc(-n2cc(C(=O)O)cn2)cc1C#N` ?
False

Recorded call for `Cc1cn([C@H]2C=C[C@@H](CO)O2)c(=O)[nH]c1=O` ?
False

Recorded call for `Cn1ccc2cc3c(cc21)CCN3C(=O)Nc1cccnc1` ?
False
